Tested on: Tetranychus cinnabarinus mite eggs
Experiment: Activity against mite eggs, dipping method on bean seedling leaves
Type: in vivo
Conditions: Tetranychus cinnabarinus, 96 h, read-out: mortality of mite eggs (%), 1 mg/L; checked after 4 days
I'd appreciate it if you could supply mortality at 1 µg/mL values for the items below.
Reply with just the number (in %).

### Prompt Hello, please tell me recorded mortality at 1 µg/mL for this one: CCS(=O)(=O)Oc1ccc(C2COC(c3c(F)cccc3F)=N2)cc1 (stereo not drawn)
### Response 50

### Prompt Please report mortality at 1 µg/mL for the following compound: O=S(=O)(Oc1ccc(C2COC(c3c(F)cccc3F)=N2)cc1)c1ccc(F)cc1F (stereo not drawn)
### Response 50

### Prompt State, in one line, measured mortality at 1 µg/mL of Cc1ccc(S(=O)(=O)Oc2ccc(C3COC(c4c(F)cccc4F)=N3)cc2)cc1 (stereo not drawn)
### Response 50

###

Tested on: Tetranychus cinnabarinus mite eggs
Test: Activity against mite eggs, dipping method on bean seedling leaves
Format: in vivo
Details: Tetranychus cinnabarinus, 96 h, read-out: mortality of mite eggs (%), 10 mg/L; checked after 4 days
Hi! Could you tag entries with mortality at 10 µg/mL below 90% as 1, and those at or above as -1? Much appreciated.

### Prompt Given the entry Fc1ccc2ccn(Cc3ccc(C4COC(c5c(F)cccc5F)=N4)cc3)c2c1 (centres unmarked) [Compound R1-21] , would its reported mortality at 10 µg/mL be below 90%?
### Response 1

### Prompt Say whether its mortality at 10 µg/mL is strictly beneath 90%. Entry: O=S(=O)(Oc1ccc(C2COC(c3c(F)cccc3F)=N2)cc1)c1cccc2ccccc12 (centres unmarked) [Compound R3-20]
### Response 1

### Prompt Determine whether this compound shows mortality at 10 µg/mL lower than 90% (ties excluded): Fc1cccc(F)c1C1=NC(c2ccc(COc3cccnc3)cc2)CO1 (centres unmarked) [Compound R2-13]
### Response 1

### Prompt Could you please tell me whether mortality at 10 µg/mL recorded for Fc1cccc(F)c1C1=NC(c2ccc(CN3CCc4ccccc43)cc2)CO1 (centres unmarked) [Compound R1-14] is less than 90%?
### Response 1

### Prompt Strictly below 90%: is that where mortality at 10 µg/mL of C#CCCOCc1ccc(C2COC(c3c(F)cccc3F)=N2)cc1 (centres unmarked) [Compound R2-7] sits?
### Response -1

### Prompt Please state whether mortality at 10 µg/mL is below 90% for Fc1cccc(F)c1C1=NC(c2ccc(Cn3ccc4c(F)cccc43)cc2)CO1 (centres unmarked) [Compound R1-20]
### Response 1

### Prompt Here's an entry: Fc1cccc(F)c1C1=NC(c2ccc(COCc3ccco3)cc2)CO1 (centres unmarked) [Compound R2-10] . Is its mortality at 10 µg/mL below 90%?
### Response 1

### Prompt Is it true that mortality at 10 µg/mL reported for Fc1cccc(F)c1C1=NC(c2ccc(COc3ncccn3)cc2)CO1 (centres unmarked) [Compound R2-17] is less than 90%?
### Response 1

### Prompt mortality at 10 µg/mL strictly < 90% for this compound? Fc1cccc(F)c1C1=NC(c2ccc(Cn3cccn3)cc2)CO1 (centres unmarked) [Compound R1-12]
### Response 1

### Prompt Find out if reported mortality at 10 µg/mL for FCCOCc1ccc(C2COC(c3c(F)cccc3F)=N2)cc1 (centres unmarked) [Compound R2-4] is less than 90%
### Response -1

### Prompt Quick check: does COCc1ccc(C2COC(c3c(F)cccc3F)=N2)cc1 (centres unmarked) [Compound R2-1] have mortality at 10 µg/mL under 90%?
### Response -1

### Prompt Problem: For the compound Fc1cccc(F)c1C1=NC(c2ccc(COCC3CCCO3)cc2)CO1 (centres unmarked) [Compound R2-9] , is mortality at 10 µg/mL under 90%?
### Response 1

### Prompt Is it true that mortality at 10 µg/mL reported for O=C1CCC(=O)N1Cc1ccc(C2COC(c3c(F)cccc3F)=N2)cc1 (centres unmarked) [Compound R1-9] is less than 90%?
### Response 1

### Prompt Is 90% strictly greater than the compound's reported mortality at 10 µg/mL? compound: Fc1cccc(F)c1C1=NC(c2ccc(CN3CCOCC3)cc2)CO1 (centres unmarked) [Compound R1-4]
### Response 1

### Prompt Take the compound CCS(=O)(=O)Oc1ccc(C2COC(c3c(F)cccc3F)=N2)cc1 (centres unmarked) [Compound R3-2] and say whether its mortality at 10 µg/mL is less than 90%.
### Response 1

### Prompt hey, is mortality at 10 µg/mL for Fc1cccnc1OCc1ccc(C2COC(c3c(F)cccc3F)=N2)cc1 (centres unmarked) [Compound R2-15] lower than 90% or not?
### Response 1

### Prompt Please check: mortality at 10 µg/mL for COc1ccc2ccn(Cc3ccc(C4COC(c5c(F)cccc5F)=N4)cc3)c2c1 (centres unmarked) [Compound R1-25] , strictly under 90% or not?
### Response 1

### Prompt Given Fc1cccc(F)c1C1=NC(c2ccc(COc3ccncn3)cc2)CO1 (centres unmarked) [Compound R2-16] , is recorded mortality at 10 µg/mL strictly lower than 90%?
### Response 1

### Prompt Decide: mortality at 10 µg/mL of CC(C)(C)c1ccc(S(=O)(=O)Oc2ccc(C3COC(c4c(F)cccc4F)=N3)cc2)cc1 (centres unmarked) [Compound R3-17] strictly below 90%?
### Response -1

### Prompt Answer whether the compound Fc1cccc(F)c1C1=NC(c2ccc(CN3CCCCCC3)cc2)CO1 (centres unmarked) [Compound R1-2] has mortality at 10 µg/mL strictly less than 90%
### Response 1

### Prompt Dear colleague, could you confirm whether mortality at 10 µg/mL of CCCOCc1ccc(C2COC(c3c(F)cccc3F)=N2)cc1 (centres unmarked) [Compound R2-3] falls below 90%? Thanks.
### Response -1

### Prompt Threshold test, mortality at 10 µg/mL < 90%: O=S(=O)(Oc1ccc(C2COC(c3c(F)cccc3F)=N2)cc1)c1ccc2c(c1)OCCO2 (centres unmarked) [Compound R3-18]
### Response 1

### Prompt Quick check: does CCOCc1ccc(C2COC(c3c(F)cccc3F)=N2)cc1 (centres unmarked) [Compound R2-2] have mortality at 10 µg/mL under 90%?
### Response -1

### Prompt Determine if C=CS(=O)(=O)Oc1ccc(C2COC(c3c(F)cccc3F)=N2)cc1 (centres unmarked) [Compound R3-6] shows mortality at 10 µg/mL strictly lower than 90%.
### Response 1

###

What mortality at 1 µg/mL was measured for each of the following?
Tested on: Tetranychus cinnabarinus mite eggs
Assay: Activity against mite eggs, dipping method on bean seedling leaves
Type: in vivo
Conditions: Tetranychus cinnabarinus, 96 h, read-out: mortality of mite eggs (%), 1 mg/L; checked after 4 days
A number alone suffices; assume %.

### Prompt Would you please give the reported mortality at 1 µg/mL of Fc1cccc(F)c1C1=NC(c2ccc(COCC(F)(F)F)cc2)CO1 (centres unmarked) with Tetranychus cinnabarinus mite eggs?
### Response 97

### Prompt Would you please give the reported mortality at 1 µg/mL of Fc1cccc(F)c1C1=NC(c2ccc(COCC3CCCO3)cc2)CO1 (centres unmarked) with Tetranychus cinnabarinus mite eggs?
### Response 55

### Prompt Please tell me the measured mortality at 1 µg/mL for Fc1cccc(F)c1C1=NC(c2ccc(Cn3ccc4c(F)cccc43)cc2)CO1 (centres unmarked) ; system: Tetranychus cinnabarinus mite eggs.
### Response 60

### Prompt Specify mortality at 1 µg/mL for Cc1cccc2ccn(Cc3ccc(C4COC(c5c(F)cccc5F)=N4)cc3)c12 (centres unmarked) , system Tetranychus cinnabarinus mite eggs.
### Response 80

### Prompt Send back Tetranychus cinnabarinus mite eggs mortality at 1 µg/mL of Fc1cccc(F)c1C1=NC(c2ccc(COc3ccc(Br)cc3)cc2)CO1 (centres unmarked) only.
### Response 60
